B1: glmS ribozyme (parent)
chain: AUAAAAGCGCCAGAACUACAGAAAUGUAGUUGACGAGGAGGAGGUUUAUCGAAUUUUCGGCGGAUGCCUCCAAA

- Variants of: B1
- TEST PROTOCOL: self-cleavage kobs at 40 uM GlcN6P; higher = faster cleavage; RNA array
- ASSAY SETUP: with glucosamine-6-phosphate
Fewer inactive variants are shown than the library holds.
ATTRIBUTE MEASURED: self-cleavage kobs at 40 uM GlcN6P

VARIANT IDENTIFIER | ATTRIBUTE MEASURED | EXPERIMENTAL RESULT
A33C G41C U47C A53G U54C U65G C70U | self-cleavage kobs at 40 uM GlcN6P | < 1e-05 s⁻¹
A12C G29C | self-cleavage kobs at 40 uM GlcN6P | 6.03e-05 s⁻¹
U54C U56A | self-cleavage kobs at 40 uM GlcN6P | 0.000356 s⁻¹
U65A G66A | self-cleavage kobs at 40 uM GlcN6P | 3.95e-05 s⁻¹
C50A G62U G63A | self-cleavage kobs at 40 uM GlcN6P | < 1e-05 s⁻¹
C10U G59C C68A | self-cleavage kobs at 40 uM GlcN6P | < 1e-05 s⁻¹
A36C C58A | self-cleavage kobs at 40 uM GlcN6P | < 1e-05 s⁻¹
G9A G44A C67A | self-cleavage kobs at 40 uM GlcN6P | < 1e-05 s⁻¹
G7U G41U A48U | self-cleavage kobs at 40 uM GlcN6P | < 1e-05 s⁻¹
G41A C68G | self-cleavage kobs at 40 uM GlcN6P | < 1e-05 s⁻¹
A42G C70A | self-cleavage kobs at 40 uM GlcN6P | 4.72e-05 s⁻¹
A15U C61G | self-cleavage kobs at 40 uM GlcN6P | < 1e-05 s⁻¹
U55C C61G | self-cleavage kobs at 40 uM GlcN6P | < 1e-05 s⁻¹
G35C C67A | self-cleavage kobs at 40 uM GlcN6P | < 1e-05 s⁻¹
A42G U57G | self-cleavage kobs at 40 uM GlcN6P | < 1e-05 s⁻¹
A15U A52U G66C | self-cleavage kobs at 40 uM GlcN6P | < 1e-05 s⁻¹
A12U G41A G44C U55G | self-cleavage kobs at 40 uM GlcN6P | < 1e-05 s⁻¹
C34G G37A G44C C50G A53G G66U | self-cleavage kobs at 40 uM GlcN6P | < 1e-05 s⁻¹
U30C G62C | self-cleavage kobs at 40 uM GlcN6P | < 1e-05 s⁻¹
A18G | self-cleavage kobs at 40 uM GlcN6P | 0.00161 s⁻¹
A12C U31G | self-cleavage kobs at 40 uM GlcN6P | 8.48e-05 s⁻¹
U30G A36U G51A | self-cleavage kobs at 40 uM GlcN6P | < 1e-05 s⁻¹
G9U G32C A42U | self-cleavage kobs at 40 uM GlcN6P | < 1e-05 s⁻¹
G41C G43A U46G C68A C70U | self-cleavage kobs at 40 uM GlcN6P | < 1e-05 s⁻¹
G41U G60U | self-cleavage kobs at 40 uM GlcN6P | < 1e-05 s⁻¹
A6U U46G C58A | self-cleavage kobs at 40 uM GlcN6P | < 1e-05 s⁻¹
U46G G66A | self-cleavage kobs at 40 uM GlcN6P | 0.000106 s⁻¹
G32U U47G U69G | self-cleavage kobs at 40 uM GlcN6P | 0.000146 s⁻¹
U54C C70G | self-cleavage kobs at 40 uM GlcN6P | 5.08e-05 s⁻¹
C8G G9C U55A | self-cleavage kobs at 40 uM GlcN6P | < 1e-05 s⁻¹
G38U U54G | self-cleavage kobs at 40 uM GlcN6P | < 1e-05 s⁻¹
G38A G51U | self-cleavage kobs at 40 uM GlcN6P | < 1e-05 s⁻¹
G7A A52G | self-cleavage kobs at 40 uM GlcN6P | < 1e-05 s⁻¹
G32U G63U | self-cleavage kobs at 40 uM GlcN6P | < 1e-05 s⁻¹
G29A U45A | self-cleavage kobs at 40 uM GlcN6P | 0.000219 s⁻¹
C8G U30A U31C | self-cleavage kobs at 40 uM GlcN6P | < 1e-05 s⁻¹
C16G U54G | self-cleavage kobs at 40 uM GlcN6P | 0.000177 s⁻¹
A39C C58A | self-cleavage kobs at 40 uM GlcN6P | < 1e-05 s⁻¹
G32U G62A | self-cleavage kobs at 40 uM GlcN6P | < 1e-05 s⁻¹
U45C G60C | self-cleavage kobs at 40 uM GlcN6P | < 1e-05 s⁻¹
C10G C50G C58A C61A | self-cleavage kobs at 40 uM GlcN6P | 9.48e-05 s⁻¹
A14U G41C G43A G63U C67A C70A | self-cleavage kobs at 40 uM GlcN6P | < 1e-05 s⁻¹
C10U A12U A33U A53G C58U U69G | self-cleavage kobs at 40 uM GlcN6P | 9.07e-05 s⁻¹
C34A G62A | self-cleavage kobs at 40 uM GlcN6P | < 1e-05 s⁻¹
A48C A52U C70A | self-cleavage kobs at 40 uM GlcN6P | < 1e-05 s⁻¹
U31G U47A | self-cleavage kobs at 40 uM GlcN6P | 0.000201 s⁻¹
G40U C70U | self-cleavage kobs at 40 uM GlcN6P | 5.55e-05 s⁻¹
G37C G44U | self-cleavage kobs at 40 uM GlcN6P | < 1e-05 s⁻¹
G13C G44U | self-cleavage kobs at 40 uM GlcN6P | < 1e-05 s⁻¹
A12C A33G U65C | self-cleavage kobs at 40 uM GlcN6P | < 1e-05 s⁻¹
C34U U56A | self-cleavage kobs at 40 uM GlcN6P | < 1e-05 s⁻¹
G29A U31A | self-cleavage kobs at 40 uM GlcN6P | 6.33e-05 s⁻¹
A12U U55A | self-cleavage kobs at 40 uM GlcN6P | 0.00252 s⁻¹
G7U C8A A33U G43A U55A | self-cleavage kobs at 40 uM GlcN6P | < 1e-05 s⁻¹
C16U U31C | self-cleavage kobs at 40 uM GlcN6P | 0.000149 s⁻¹
A6U A36G | self-cleavage kobs at 40 uM GlcN6P | < 1e-05 s⁻¹
A39U A42G C67U | self-cleavage kobs at 40 uM GlcN6P | 0.000231 s⁻¹
C16A U47C C50G G66A C67U U69G | self-cleavage kobs at 40 uM GlcN6P | 7.74e-05 s⁻¹
G29C G37U G63U | self-cleavage kobs at 40 uM GlcN6P | < 1e-05 s⁻¹
A39U G44A | self-cleavage kobs at 40 uM GlcN6P | 0.000115 s⁻¹
A53G G66A C67A | self-cleavage kobs at 40 uM GlcN6P | 0.000154 s⁻¹
G59U C71G | self-cleavage kobs at 40 uM GlcN6P | < 1e-05 s⁻¹
G9U G43U | self-cleavage kobs at 40 uM GlcN6P | < 1e-05 s⁻¹
A12U C71U | self-cleavage kobs at 40 uM GlcN6P | 0.00207 s⁻¹
A52C U55G | self-cleavage kobs at 40 uM GlcN6P | < 1e-05 s⁻¹
G43A G66U | self-cleavage kobs at 40 uM GlcN6P | < 1e-05 s⁻¹
C10U G29U U56G | self-cleavage kobs at 40 uM GlcN6P | < 1e-05 s⁻¹
G7A G32A C50G | self-cleavage kobs at 40 uM GlcN6P | 4.2e-05 s⁻¹
C11G G37U | self-cleavage kobs at 40 uM GlcN6P | < 1e-05 s⁻¹
C8U A39U | self-cleavage kobs at 40 uM GlcN6P | < 1e-05 s⁻¹
C11U U55A U56G | self-cleavage kobs at 40 uM GlcN6P | 4.23e-05 s⁻¹
A42C C50U U69A | self-cleavage kobs at 40 uM GlcN6P | < 1e-05 s⁻¹
A14U C71G | self-cleavage kobs at 40 uM GlcN6P | 2.7e-05 s⁻¹
G7C C50U | self-cleavage kobs at 40 uM GlcN6P | < 1e-05 s⁻¹
G38A A52U C71U | self-cleavage kobs at 40 uM GlcN6P | < 1e-05 s⁻¹
